- protocol.summary: Diameter and PDI from DLS measurements of mRNA nanoparticles with lipid amines
- Format: physicochemical
- assay.setup: CFTR mRNA nanoparticle with lipid amine
- Experimental: Lipids are dissolved in ethanol at a concentration of 24 mg/mL and molar ratios of 49.0:11.2:39.3:0.5 (IL1:DSPC:cholesterol:PEG-DMG-2K) and mixed with the acidification buffer (45 mM acetate buffer at pH 4). The lipid solution and acidification buffer are mixed using a multi-inlet vortex mixer at a 3:7 volumetric ratio of lipid:buffer for mixer 1 and mixer 2 and a 1:3 volumetric ratio of lipid:buffer (25% ethanol) for mixer 3. […]
Structures can show the parent of a compound that is named as a salt.
Criterion: Diameter (nm) strictly under 80 nm. Met: 1 (yes). Not met: 0 (no).

molecule	label.value
CC(C)CCC[C@@H](C)[C@H]1CC[C@H]2[C@@H]3CC=C4C[C@@H](OC(=O)C(=O)N(CCCN)CCCCNCCCN)CC[C@]4(C)[C@H]3CC[C@]12C [SA66, trihydrochloride]	1 (yes)
CC(C)CCC[C@@H](C)[C@H]1CC[C@H]2[C@@H]3CC=C4C[C@@H](OC(=O)N(CCC(C)(C)N)CCC(C)(C)N)CC[C@]4(C)[C@H]3CC[C@]12C [SA158, dihydrochloride]	1 (yes)
CC(C)CCC[C@@H](C)[C@H]1CC[C@H]2[C@@H]3CC=C4C[C@@H](OC(=O)CCCCC(=O)N(CCCN)CCCCNCCCN)CC[C@]4(C)[C@H]3CC[C@]12C [SA89, trihydrochloride]	0 (no)
CC(C)CCC[C@@H](C)[C@H]1CC[C@H]2[C@@H]3CC=C4C[C@@H](OC(=O)N(CCCCNCC5(CN)CC5)CC5(CN)CC5)CC[C@]4(C)[C@H]3CC[C@]12C.Cl.Cl.Cl	1 (yes)
CC(C)CCC[C@@H](C)[C@H]1CC[C@H]2[C@@H]3CC=C4C[C@@H](OC(=O)CN(CCCN)CCCCCCCCN)CC[C@]4(C)[C@H]3CC[C@]12C [SA71, trihydrochloride]	1 (yes)
CC[C@H](CC[C@@H](C)[C@H]1CC[C@H]2[C@@H]3CC=C4C[C@@H](SSCCC(=O)N(CCCCCCCC(C)(C)N)CCC(C)(C)N)CC[C@]4(C)[C@H]3CC[C@]12C)C(C)C [SA179, dihydrochloride]	1 (yes)
CC[C@H](CC[C@@H](C)[C@H]1CC[C@H]2[C@@H]3CC=C4C[C@@H](OC(=O)N(CCCCNCCC(C)(C)N)CCC(C)(C)N)CC[C@]4(C)[C@H]3CC[C@]12C)C(C)C [SA114, trihydrochloride]	0 (no)
CC(C)CCC[C@@H](C)[C@H]1CC[C@H]2[C@@H]3CC=C4C[C@@H](OC(=O)CCCC(=O)N(CCCCCCCC(C)(C)N)CCC(C)(C)N)CC[C@]4(C)[C@H]3CC[C@]12C.Cl.Cl	1 (yes)
CC[C@H](CC[C@@H](C)[C@H]1CC[C@H]2[C@@H]3CC=C4C[C@@H](OC(=O)N(CCCN)CCCCN)CC[C@]4(C)[C@H]3CC[C@]12C)C(C)C [SA120, dihydrochloride]	0 (no)
CC(C)CCC[C@@H](C)[C@H]1CC[C@H]2[C@@H]3CC=C4C[C@@H](OC(=O)[C@H](CCCCN)NCCCCCCN)CC[C@]4(C)[C@H]3CC[C@]12C.Cl.Cl.Cl	0 (no)
CCC(N)CCNCCCCN(CCC(N)CC)C(=O)O[C@H]1CC[C@@]2(C)C(=CC[C@H]3[C@@H]4CC[C@H]([C@H](C)CCCC(C)C)[C@@]4(C)CC[C@@H]32)C1.Cl.Cl.Cl (stereo partly drawn)	1 (yes)
CC[C@H](CC[C@@H](C)[C@H]1CC[C@H]2[C@@H]3CC=C4C[C@@H](SSCCC(=O)N(CCCCCCCC(C)N)CCC(C)N)CC[C@]4(C)[C@H]3CC[C@]12C)C(C)C (stereo partly drawn) [SA178, dihydrochloride]	0 (no)
CC(C)CCC[C@@H](C)[C@H]1CC[C@H]2[C@@H]3CC=C4C[C@@H](OC(=O)N(CCCC(C)(C)N)CCC(C)(C)N)CC[C@]4(C)[C@H]3CC[C@]12C [SA157, dihydrochloride]	1 (yes)
CC(C)CCC[C@@H](C)[C@H]1CC[C@H]2[C@@H]3CC=C4C[C@@H](OC(=O)CN(CCCCCCCCN)C(=O)CCCCCN)CC[C@]4(C)[C@H]3CC[C@]12C [SA123, dihydrochloride]	0 (no)
CC[C@H](CC[C@@H](C)[C@H]1CC[C@H]2[C@@H]3CC=C4C[C@@H](OC(=O)CCC(=O)N(CCCCNCCC(C)(C)N)CCC(C)(C)N)CC[C@]4(C)[C@H]3CC[C@]12C)C(C)C [SA161, trihydrochloride]	1 (yes)
C/C(=C/CCC(C)C)[C@H]1CC[C@H]2[C@@H]3CC=C4C[C@@H](OC(=O)N(CCCN)CCCCNCCCN)CC[C@]4(C)[C@H]3CC[C@]12C	1 (yes)
CC(C)CCC[C@@H](C)[C@H]1CC[C@H]2[C@@H]3CC=C4C[C@@H](OC(=O)N(CCCCCCN)CCCCCCN)CC[C@]4(C)[C@H]3CC[C@]12C [SA81, dihydrochloride]	0 (no)

Entry source: patent US20260109732A1
